measurementTarget: T1, IL-1R of pig (piglet pial vessels; porcine endothelial cells) (porcine (piglet), UniProt A0A5G2QSI4 18-572)
T1 sequence: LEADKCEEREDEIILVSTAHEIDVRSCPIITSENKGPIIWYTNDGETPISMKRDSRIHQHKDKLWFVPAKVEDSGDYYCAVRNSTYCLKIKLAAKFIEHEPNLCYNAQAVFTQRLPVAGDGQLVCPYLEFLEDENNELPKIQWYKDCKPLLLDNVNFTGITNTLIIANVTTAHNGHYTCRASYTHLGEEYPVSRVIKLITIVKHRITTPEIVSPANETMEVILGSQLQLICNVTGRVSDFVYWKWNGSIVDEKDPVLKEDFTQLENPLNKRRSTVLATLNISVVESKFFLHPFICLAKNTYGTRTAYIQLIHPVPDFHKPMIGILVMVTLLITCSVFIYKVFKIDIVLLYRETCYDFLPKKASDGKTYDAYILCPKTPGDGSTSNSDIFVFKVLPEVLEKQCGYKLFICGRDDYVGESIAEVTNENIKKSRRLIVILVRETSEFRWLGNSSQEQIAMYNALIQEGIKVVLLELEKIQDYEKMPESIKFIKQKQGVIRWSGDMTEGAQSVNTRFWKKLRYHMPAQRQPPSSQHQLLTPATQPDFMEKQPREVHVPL
experimentNotes: cell-based or functional assay
Where no end group is shown, it is not given here. [ ]: non-standard residue; d: D form.
Measured IC50, IL-1β-induced PGE2 synthesis in endothelial cells (porcine) by item
Numbers only; they are read as pM.

Past entries and their recorded results:
| binder | valueMeasured |
| --- | --- |
| [dR][dY][dT][dP][dD][dL][dA] [API-101.117] | 10 |
| [dR][dY][dT][dP][dE][dL] [API-101.113] | 7.4 |
| [dR][dW][dT][dP][dE][dL][dA] [API-101.116] | 13 |

Param item = [dK][dY][dT][dP][dE][dL][dA] [API-101.114] ; retrieve measured IC50, IL-1β-induced PGE2 synthesis in endothelial cells (porcine).
2
